For each entry below, report its solubility kinetic value.
applied.conditions: buffer; pH 7.4; 200.0 µM

Recorded solubility kinetic (molecule CS(=O)(=O)N(CC(=O)N1CCOCC1)c1ccccc1 ): > 44.8 µg/mL

Sure, the documented solubility kinetic for CC[n+]1c(C)n(-c2ccccc2)c2ccc(NC(C)=O)cc21.[I-] is > 63.2 µg/mL

In plain terms, Cc1nc2ccccc2n1C(C)c1ccccc1 (stereo unspecified) has a documented solubility kinetic of > 35.4 µg/mL

For this molecule ( CCOC(=O)c1c(C)n(C)c2cc(Br)c(OC)cc12 ), measured solubility kinetic is < 0.7 µg/mL

solubility kinetic for COc1ccc(OC)c2c1sc(=NC(=O)C1COc3ccccc3O1)n2C (stereo unspecified) is < 0.4 µg/mL

solubility kinetic recorded for this molecule, CC(CNC(=O)c1ccccc1[N+](=O)[O-])NC(=O)c1ccccc1[N+](=O)[O-] (stereo unspecified) , is > 55.9 µg/mL

====

applied.conditions: buffer; pH 7.4; 200.0 µM
So I've got a bunch of compounds here, and I need their solubility kinetic values.

Kindly note the recorded solubility kinetic for Cn1cc(C(=O)CCl)c2ccccc21 , which is > 31.1 µg/mL

So, NC(=O)COC(=O)CC12CC3CC(CC(Br)(C3)C1)C2 ? Its solubility kinetic was > 49.5 µg/mL

Sample COc1ccc(SCCC(=O)NCc2ccncc2)cc1 ; solubility kinetic observed: > 45.4 µg/mL

Sure, the documented solubility kinetic for O=C(OCC(=O)N1CCOCC1)c1cc(=O)[nH]c2ccccc12 is > 47.4 µg/mL

The reported value for Cc1cccc(NC(=O)COC(=O)CC2CCCC2)c1C in terms of solubility kinetic is > 43.4 µg/mL

The compound listed as CC1CC(C)CN(C(=O)CCCNC(=O)c2ccc(Cl)cc2)C1 (centres undefined) shows solubility kinetic equal to > 50.5 µg/mL

solubility kinetic measured on CCOC(=O)CCn1cc(F)c(=O)[nH]c1=O = > 34.5 µg/mL

The compound listed as O=C(Nc1nc2ccsc2c(=O)s1)c1ccc(Cl)cc1 has a reported solubility kinetic of < 0.3 µg/mL

// recorded solubility kinetic for Cn1c(=O)oc2cc(S(=O)(=O)NC3CCCCC3)ccc21 : > 46.6 µg/mL

Short answer for CCOC(=O)c1c(C)[nH]c(C)c1C=O : solubility kinetic was > 29.3 µg/mL

Entry Cc1ccc(NC(=O)N2CCCC2c2cccs2)cc1 (centres undefined) — recorded solubility kinetic = > 43 µg/mL

The compound identified as Cc1cc2nc3n(c2cc1C)CCCN3 registered its solubility kinetic at > 30.2 µg/mL

What the record says about Cc1c(-n2cccc2C=O)cccc1[N+](=O)[O-] : solubility kinetic is > 34.5 µg/mL

Please fill in: solubility kinetic reported for CCOc1ccc(C(=O)n2cc(C(=O)OC)c3ccccc32)cc1 = < 0.7 µg/mL

====

applied.conditions: buffer; pH 7.4; 200.0 µM
endpoint.label: solubility kinetic

Lab note: COc1ccccc1NC(=O)Nc1ccc2c(c1)CCC2 gave solubility kinetic of < 0.3 µg/mL

Given item CN(C)C(=O)C1CCC(=O)N1Cc1cccs1 (stereo unspecified) , the value recorded as its solubility kinetic is > 37.8 µg/mL

Given item COc1ccc(NS(=O)(=O)c2cn(C)nc2C)cc1 , the value recorded as its solubility kinetic is > 42.2 µg/mL

Recorded solubility kinetic (compound COc1ccc(CCNC(=O)COC(=O)C2CC2)cc1OC ): > 46.1 µg/mL

For record Cc1ccc(NC(=O)CSc2ncccn2)cc1F the listed solubility kinetic is > 41.6 µg/mL

Lookup result for Cc1ccc(S(=O)(=O)N2CCOCC2)cc1C(=O)OCC(=O)N1CCCC1=O ; measured solubility kinetic: > 61.6 µg/mL

The compound Cc1csc(SCC(=O)Nc2ccc(F)cc2Cl)n1 showed solubility kinetic equal to > 47.5 µg/mL

The compound identified as NC(=O)CSc1nc2cc(S(=O)(=O)N3CCOCC3)ccc2o1 registered its solubility kinetic at > 53.6 µg/mL

Note to self: solubility kinetic recorded for Nn1c(C2CCC2)nc2ccccc2c1=O was > 32.3 µg/mL

According to the records, this compound O=C(OCC(=O)N1CCCCC1)c1ccc2ccccc2n1 displays solubility kinetic of > 44.7 µg/mL

Form: compound = O=C(NCCc1ccccc1)c1ccc2[nH]c(=O)c(=O)[nH]c2c1 ; solubility kinetic = > 46.4 µg/mL

Provenance of the data: PubChem BioAssay AID1996
